This section presents binders with their documented Kd values.
- MEASURED_TARGET: T1, cynomolgus monkey BCMA (cynomolgus monkey, UniProt A0A2K5UD97 1-53)
- T1 construct: Soluble analyte in SPR; construct not described; also called cyBCMA; Cyno BCMA
- T1 sequence (A0A2K5UD97 entry or part of it): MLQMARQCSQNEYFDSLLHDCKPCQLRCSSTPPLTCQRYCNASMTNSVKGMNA
- METHOD: SPR, IgG immobilised, 37 C
Please give a number only; it is taken to be in nM.

L3.PY/L1.PS/H2.DY (antibody, V domains shown, IgG) VH: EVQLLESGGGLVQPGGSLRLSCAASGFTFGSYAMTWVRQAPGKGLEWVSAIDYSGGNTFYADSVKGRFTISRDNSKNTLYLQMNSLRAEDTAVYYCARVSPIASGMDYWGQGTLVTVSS VL: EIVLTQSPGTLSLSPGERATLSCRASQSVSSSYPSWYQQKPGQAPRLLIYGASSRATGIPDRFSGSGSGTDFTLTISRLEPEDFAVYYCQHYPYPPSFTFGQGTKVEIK    1.99
L3.PY/L3.KF/P6E01 (antibody, V domains shown, IgG) VH: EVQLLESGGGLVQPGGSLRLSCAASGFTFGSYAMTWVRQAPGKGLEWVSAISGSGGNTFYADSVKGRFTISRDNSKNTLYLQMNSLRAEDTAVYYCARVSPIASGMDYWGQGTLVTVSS VL: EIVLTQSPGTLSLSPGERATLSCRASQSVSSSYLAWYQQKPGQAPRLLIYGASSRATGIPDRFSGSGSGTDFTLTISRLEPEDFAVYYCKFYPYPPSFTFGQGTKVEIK    3.48
L3.PY/L1.PS/H2.LT (antibody, V domains shown, IgG) VH: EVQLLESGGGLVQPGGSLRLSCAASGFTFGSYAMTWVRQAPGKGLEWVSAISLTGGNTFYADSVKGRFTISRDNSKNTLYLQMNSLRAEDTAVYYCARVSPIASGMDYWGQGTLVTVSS VL: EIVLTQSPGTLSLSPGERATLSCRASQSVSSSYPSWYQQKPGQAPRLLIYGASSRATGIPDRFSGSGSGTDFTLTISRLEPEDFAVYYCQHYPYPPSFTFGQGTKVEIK    1.89

Challenge: Please report Kd for the following binder: L3.PY/P6E01 (antibody, V domains shown, IgG) VH: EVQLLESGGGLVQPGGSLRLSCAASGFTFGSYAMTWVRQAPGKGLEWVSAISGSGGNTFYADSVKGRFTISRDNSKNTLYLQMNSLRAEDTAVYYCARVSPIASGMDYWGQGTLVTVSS VL: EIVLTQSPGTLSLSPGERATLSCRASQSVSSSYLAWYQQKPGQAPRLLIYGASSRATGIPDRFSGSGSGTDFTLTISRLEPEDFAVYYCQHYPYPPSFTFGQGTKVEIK
Response given: 5.96

Challenge: Please report Kd for the following binder: L3.PY/L1.PS/H3.AE (antibody, V domains shown, IgG) VH: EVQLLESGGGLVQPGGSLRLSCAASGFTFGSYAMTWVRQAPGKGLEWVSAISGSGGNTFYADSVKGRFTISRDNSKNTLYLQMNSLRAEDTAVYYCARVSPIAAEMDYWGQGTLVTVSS VL: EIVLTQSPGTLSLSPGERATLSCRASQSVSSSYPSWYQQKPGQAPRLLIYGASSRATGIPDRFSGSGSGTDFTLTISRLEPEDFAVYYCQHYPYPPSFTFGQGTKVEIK
Response given: 1.68

Ref: patent US20160297884A1
